B1: Arabidopsis thaliana cryptochrome 2 (CRY2, UniProt Q96524), residues 1-535 fused after the Gal4 DNA-binding domain (Gal4BD-CRY2(535)); mutagenized window 321-412, Q96524 (parent)
chain: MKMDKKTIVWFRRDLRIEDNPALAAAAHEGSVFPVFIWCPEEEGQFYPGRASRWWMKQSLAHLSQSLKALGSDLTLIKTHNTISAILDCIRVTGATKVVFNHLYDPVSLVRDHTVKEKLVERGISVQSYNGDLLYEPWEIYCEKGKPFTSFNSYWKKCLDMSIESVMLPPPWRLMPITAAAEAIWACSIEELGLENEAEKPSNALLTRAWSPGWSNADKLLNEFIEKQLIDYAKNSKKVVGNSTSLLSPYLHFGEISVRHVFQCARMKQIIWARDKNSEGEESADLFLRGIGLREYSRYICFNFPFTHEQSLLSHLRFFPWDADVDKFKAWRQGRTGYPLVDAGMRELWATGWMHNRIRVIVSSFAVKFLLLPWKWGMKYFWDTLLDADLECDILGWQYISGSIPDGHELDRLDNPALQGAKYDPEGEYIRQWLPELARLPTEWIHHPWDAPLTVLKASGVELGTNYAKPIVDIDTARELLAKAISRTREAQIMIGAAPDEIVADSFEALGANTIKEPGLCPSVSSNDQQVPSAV

Variants of: B1
testDetails: yeast two-hybrid growth selection (MaV203; Gal4BD-CRY2(1-535) library x Gal4AD-CIB1; URA3 reporter on SC -Trp/-Leu/-Ura) in the dark, deep sequencing before and after selection, Enrich2 scoring; three independent screens (one at 48 h, two …)
conditionSummary: with CIB1 (CRYPTOCHROME-INTERACTING BASIC-HELIX-LOOP-HELIX 1), dark (no blue light), screens 1, 3 and 4, Svar > 0 = enriched under dark selection for CRY2-CIB1 two-hybrid growth (URA3 reporter), < 0 = depleted, relative to wild type (whose scores are 0). 'The Enrich2 software calculates, parent: 0, not an affinity, scale: Enrich2 score, numbering: uniprot, sequence starts at 1
Please use the following enrichment ranges when assigning a class: low (below -0.8), mid (-0.8 to below -0.3), high (-0.3 or more)

// bin(item) where item = I400V mid

// bin(item) where item = A388P low

// bin(item) where item = K368N high

// bin(item) where item = M354V high

// bin(item) where item = F381I mid

// bin(item) where item = I361F high

// bin(item) where item = D342A mid

// bin(item) where item = D383E mid

// bin(item) where item = T384K mid

// bin(item) where item = Y338D low
